Test: Serum pharmacokinetics of RIF and RIFax in mice (p.o., i.p., i.v.; LC-MS/MS)
Format: in vivo
Conditions: mouse, serum; mice, single oral dose 10 mg/kg; read-out: Cmax of serum
Description: The maximum concentration in serum (Cmax) was obtained from the original data. […] Intestinal contents were weighted, and homogenized in methanol (100 mg/ml). The homogenate was centrifuged at 14,000 rpm for 10 min at 4° C. The mass spectrometer was operated in the turbo ion spray mode with positive ion detection. The turbo ion spray temperature was maintained at 300° C., and a voltage of 4.8 kV was applied to the sprayer needle. N2 was used as the turbo ion spray and nebulizing gas.

{"COMPOUND": "COC1/C=C/OC2(C)Oc3c(C)c(O)c4c(O)c(c5c(nc6cc(C)ccn65)c4c3C2=O)NC(=O)/C(C)=C\\C=C\\C(C)C(O)C(C)C(O)C(C)C(OC(C)=O)C1C (stereo not shown)", "Cmax, nM": 40}

---

Assay: in vivo
Format: in vivo
Conditions: mouse, in vivo, po, 10 mg/kg
Procedure: The maximum concentration in serum (Cmax) was obtained from the original data. […] Intestinal contents were weighted, and homogenized in methanol (100 mg/ml). The homogenate was centrifuged at 14,000 rpm for 10 min at 4° C. The mass spectrometer was operated in the turbo ion spray mode with positive ion detection. The turbo ion spray temperature was maintained at 300° C., and a voltage of 4.8 kV was applied to the sprayer needle. N2 was used as the turbo ion spray and nebulizing gas.

{"MOLECULE": "CO[C@H]1/C=C/O[C@@]2(C)Oc3c(C)c(O)c4c(O)c(c(/C=N/N5CCN(C)CC5)c(O)c4c3C2=O)NC(=O)/C(C)=C\\C=C\\[C@H](C)[C@H](O)[C@@H](C)[C@@H](O)[C@@H](C)[C@H](OC(C)=O)[C@@H]1C [RIF]", "RESULT UNIT": "nM", "Cmax": 2750}

---

Molecular target: human PXR (Homo sapiens, UniProt O75469)
Sequence (O75469 whole entry): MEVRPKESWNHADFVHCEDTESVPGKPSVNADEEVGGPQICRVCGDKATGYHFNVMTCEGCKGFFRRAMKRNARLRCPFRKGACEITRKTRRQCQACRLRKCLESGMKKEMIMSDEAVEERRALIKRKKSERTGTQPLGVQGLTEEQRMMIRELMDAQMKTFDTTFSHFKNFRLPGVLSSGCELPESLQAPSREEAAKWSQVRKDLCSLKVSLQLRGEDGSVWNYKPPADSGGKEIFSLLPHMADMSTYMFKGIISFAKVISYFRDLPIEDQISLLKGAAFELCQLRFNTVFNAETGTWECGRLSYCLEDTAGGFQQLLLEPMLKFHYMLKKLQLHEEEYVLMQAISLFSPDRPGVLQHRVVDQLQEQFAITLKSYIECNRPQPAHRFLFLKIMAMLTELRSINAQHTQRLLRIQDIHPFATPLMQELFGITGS
Assay: Cell-based reporter assay, DPX2 (hepG2) cell line, luciferase
Details: DPX2 cell line; read-out: EC50 for activation of hPXR
Protocol: A hepG2 cell line (DPX2) with stable expression of recombinant human PXR and a PXR-response element cloned in a luciferase vector was obtained from Puracyp Inc. (Carlsbad, Calif.). […] The cells were seeded according to the distributor's instruction. […]
pEC50: −log10 of the molar value.
TEST READOUT: pEC50

{"COMPOUND": "COC1/C=C/OC2(C)Oc3c(C)c(O)c4c(O)c(c5c(nc6cc(C)ccn65)c4c3C2=O)NC(=O)/C(C)=C\\C=C\\C(C)C(O)C(C)C(O)C(C)C(OC(C)=O)C1C (stereo not shown) [RIFax]", "TESTED TARGET": "human PXR (Homo sapiens, UniProt O75469)", "RESULT": "~4.70"}
